molecular target: UniProt:Q92731; test: ERβ–SRC-3 coactivator interaction inhibitors, confirmation, orthogonal assay, biochemical, ELISA, streptavidin-HRP readout (AID 1060)
Sequence (Q92731 whole entry): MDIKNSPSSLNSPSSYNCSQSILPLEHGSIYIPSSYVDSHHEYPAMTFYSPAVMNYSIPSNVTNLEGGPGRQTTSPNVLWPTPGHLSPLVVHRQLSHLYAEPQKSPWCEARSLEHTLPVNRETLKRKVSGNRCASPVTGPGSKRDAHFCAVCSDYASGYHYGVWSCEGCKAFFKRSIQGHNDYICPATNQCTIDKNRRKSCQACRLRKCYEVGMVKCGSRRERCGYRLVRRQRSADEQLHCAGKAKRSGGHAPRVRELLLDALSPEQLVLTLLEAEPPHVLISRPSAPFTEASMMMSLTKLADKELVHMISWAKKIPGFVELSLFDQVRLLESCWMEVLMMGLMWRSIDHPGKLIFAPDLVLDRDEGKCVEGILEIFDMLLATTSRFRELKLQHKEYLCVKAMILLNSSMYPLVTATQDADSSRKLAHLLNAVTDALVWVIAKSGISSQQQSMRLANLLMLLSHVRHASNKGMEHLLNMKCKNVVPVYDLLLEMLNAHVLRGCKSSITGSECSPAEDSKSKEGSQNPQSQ
REPORTED METRIC: IC50

CC(=O)c1c(COC(=O)c2ccco2)nc2ccccc2[n+]1[O-] = < 77 µM (not active)
c1ccc(-c2noc(-c3ccc4c(c3)OCO4)n2)nc1 = > 109 µM (not active)
CCn1nnc(NC(=O)CSc2ccc(Cl)cc2)n1 = > 109 µM (not active)

Here's the next entry for you.
Exercise: Consider the compound CC(C)(C)OC(=O)N1CCN(c2ccc(NC(=O)Cn3nnc(-c4ccccc4)n3)cc2)CC1 and give its measured IC50.
Solution: 2.7 µM (not active)

###

target: Genome polyprotein (dengue virus type 2, UniProt P29990); assay: Dengue-2 NS5 methyltransferase inhibitors, primary screen, biochemical, confirmation dose response (AID 588689); assay type: functional
The source made the active and inactive calls.
Entries annotated with measured IC50

Worked cases, IC50 given:
O=C(O)CN1C(=O)/C(=C\c2cc(Br)ccc2OCc2ccc(Cl)cc2)SC1=S = 24.8 µM (active)
CN1C(=O)/C(=C/c2cccc([N+](=O)[O-])c2)C(=O)N1c1ccccc1 = 26.3 µM (active)

Exercise: Recorded IC50 of O=C1Nc2ccc(F)cc2C12Nc1ccccc1-c1nnc(SCc3ccccc3)nc1O2 (configuration not stated) , please.
Solution: 46.2 µM (active)

Exercise: Dear colleague, I am looking for the recorded IC50 of the following compound: CCOc1cc(/C=C2/C(=O)ON=C2C)ccc1OCc1ccccc1F
Solution: 41.5 µM (active)

Exercise: Bench note: what IC50 did COc1cccc(C(c2c(C)[nH]n(-c3ccccc3)c2=O)c2c(C)[nH]n(-c3ccccc3)c2=O)c1O show?
Solution: 38.8 µM (active)

Exercise: Data request, read-out IC50, for O=C1ON=C(c2ccccc2)/C1=C/c1ccc(-c2ccccc2[N+](=O)[O-])o1
Solution: 11.6 µM (active)

Exercise: Need IC50 of COc1ccccc1N1C(=O)NC(=O)/C(=C/c2ccc3c(c2)Cc2ccccc2-3)C1=O , thanks.
Solution: 59.4 µM (active)

###

assay: control 3'UTR Renilla luciferase suppression, dose response, counter-screen for Shn3 inhibitor project, cell-based, Clone20-Shn3RL, cherry-picked (AID 624133); assay type: functional
Calls of active or inactive are those of the source.
REPORTED METRIC: AC50

Please review the entries below; each comes with its answer.
CN(c1cccc(Cl)c1)S(=O)(=O)c1cccc(C(=O)NCc2ccncc2)c1 = 0.664 µM (active)
CCOC(=O)N1CCC(NC(=O)C2CCCN(Cc3nc(-c4cccc(C)c4)oc3C)C2)CC1 (stereo not given) = 7.52 µM (active)
Cc1ccc(S(=O)(=O)N2CCN(c3ncnc4sccc34)CC2)cc1C = 6.17 µM (active)

Exercise: # input compound: Cc1cc(Br)c2c(c1)/C(=C/C(=O)c1cccs1)C(=O)N2 ; wanted: its AC50
Solution: 20.7 µM (active)

Exercise: Could you tell me which AC50 is on file for COc1cc(OC)c(OC)cc1CNc1cc(C)ccc1OC ?
Solution: 7.92 µM (active)

###

Measured EC50 values are reported for all entries that follow.
biological target: Short transient receptor potential channel 4 (Mus musculus); experiment: mouse TRPC4 channel activators, dose response, cell-based, HEK293 TRPC4/mu-opioid, Fluo-4 calcium (AID 434937); assay type: functional
Sequence (Q9QUQ5 whole entry): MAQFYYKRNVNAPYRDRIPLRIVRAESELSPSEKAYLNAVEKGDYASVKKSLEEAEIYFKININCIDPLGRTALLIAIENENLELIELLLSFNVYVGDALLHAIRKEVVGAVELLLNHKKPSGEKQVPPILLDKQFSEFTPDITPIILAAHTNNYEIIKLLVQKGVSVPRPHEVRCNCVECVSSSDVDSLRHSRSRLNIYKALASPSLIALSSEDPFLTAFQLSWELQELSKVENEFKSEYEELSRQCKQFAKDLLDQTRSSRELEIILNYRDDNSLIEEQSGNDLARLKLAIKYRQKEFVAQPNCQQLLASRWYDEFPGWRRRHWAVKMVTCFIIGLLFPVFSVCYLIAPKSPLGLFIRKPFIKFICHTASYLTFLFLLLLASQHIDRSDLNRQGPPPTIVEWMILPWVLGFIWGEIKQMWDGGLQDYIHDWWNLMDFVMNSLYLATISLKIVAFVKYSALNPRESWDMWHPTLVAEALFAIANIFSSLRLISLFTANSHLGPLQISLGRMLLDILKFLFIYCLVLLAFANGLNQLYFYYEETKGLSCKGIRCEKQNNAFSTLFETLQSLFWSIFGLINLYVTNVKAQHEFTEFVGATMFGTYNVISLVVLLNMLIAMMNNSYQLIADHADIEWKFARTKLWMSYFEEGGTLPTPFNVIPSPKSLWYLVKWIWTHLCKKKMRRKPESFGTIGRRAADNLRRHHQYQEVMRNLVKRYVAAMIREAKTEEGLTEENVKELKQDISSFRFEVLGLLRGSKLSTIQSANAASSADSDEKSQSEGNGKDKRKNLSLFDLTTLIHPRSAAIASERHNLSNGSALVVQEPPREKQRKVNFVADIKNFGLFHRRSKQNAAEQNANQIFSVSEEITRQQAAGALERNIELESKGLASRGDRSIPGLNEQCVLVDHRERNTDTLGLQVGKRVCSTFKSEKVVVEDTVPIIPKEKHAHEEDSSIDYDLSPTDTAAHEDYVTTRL
Active and inactive are the calls of the source.

Worked cases, answers included:
N=C1C[N+](CC23CC4CC(CC(C4)C2)C3)=NO1 = 1060 nM (active)
Cn1c(CN2CCN(c3cccc(Cl)c3)CC2)nc2ccccc21 = 2110 nM (active)
COc1ccccc1N1CCN(C(c2cccs2)C(C)NC(=O)c2ccco2)CC1 (stereo not given) = 84 nM (active)
O=C(NC(=S)NNC(=O)c1cccs1)c1ccc(Br)o1 = 5310 nM (active)

# ---- query compound ----
Exercise: Could you tell me which EC50 is on file for CCOC(=O)C1(CCOc2ccccc2)CCN(Cc2cc(OC)ccc2OC)CC1 ?
Solution: 3760 nM (active)
